# assayDetails: Determination of pKa by UV-Vis absorbance
# Format: physicochemical
# experimentalSetup: MES and Tris buffers of different pH, pH 5.2
reportedProperty: pKa
Respond numerically, and do not add a unit to the figure.

Recorded result, O=c1oc2cc(O)ccc2cc1-n1cc(COCCOCCOCCO)nn1 , pKa: 7.1

Entry source: paper PMC10746523
